Origin of measurements: patent US20180057581A1

Biological target: T1, human M-CSF (human, UniProt P09603 33-255, limits assumed); also: test concentration or dose not given here
T1 construct: also called M-CSF (human); CSF-1
T1 sequence: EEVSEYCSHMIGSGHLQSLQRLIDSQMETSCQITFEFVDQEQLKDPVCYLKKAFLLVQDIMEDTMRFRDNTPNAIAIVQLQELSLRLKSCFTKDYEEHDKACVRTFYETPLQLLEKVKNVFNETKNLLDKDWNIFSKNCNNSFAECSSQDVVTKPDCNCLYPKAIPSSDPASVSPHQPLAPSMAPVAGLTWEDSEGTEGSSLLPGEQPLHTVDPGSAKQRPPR
Experiment: ELISA
# reported ELISA fluorescence units; entries follow
value-type: ELISA fluorescence units

- binder: "Madeleine (format not stated) (antibody, V domains shown) VH: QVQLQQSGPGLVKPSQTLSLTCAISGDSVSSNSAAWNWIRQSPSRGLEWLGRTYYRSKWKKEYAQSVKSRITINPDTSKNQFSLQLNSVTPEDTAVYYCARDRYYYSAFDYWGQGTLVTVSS VL: QSALTQPASVSGSPGQSITISCTGTSSDVGGYNSVSWYQQHPGKAPKLMIYAVSNRPSGVSNRFSGSKSGNTASLTISGLQAEDEADYYCASYDERFTRVFGGGTKLTVLG"
  value-type: "ELISA fluorescence units"
  value-observed: "> 35000 units"
- binder: "Servane (format not stated) (antibody, V domains shown) VH: EVQLVESGGGLVKPGGSLRLSCAASGFTFSTYAISWVRQAPGKGLEWVGFIKSKHNSGTTEYAAPVKGRFTISRDDSKNTLYLQMNSLKTEDTAVYYCARMRYYSDLYFDPWGQGTLVTVSS VL: SYELTQPPSVSVSPGQTASITCSGDKLGQKYVSWYQQKPGQSPVLVISQDRKRPSGIPERFSGSNSGNTATLTISGTQAEDEADYYCQTWTHLQWVFGGGTKLTVLG"
  value-type: "ELISA fluorescence units"
  value-observed: "> 35000 units"
- binder: "Laurine (format not stated) (antibody, V domains shown) VH: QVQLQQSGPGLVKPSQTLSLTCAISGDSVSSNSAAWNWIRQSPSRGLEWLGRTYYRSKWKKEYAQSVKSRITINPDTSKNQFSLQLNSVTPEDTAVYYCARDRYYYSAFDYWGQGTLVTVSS VL: DIALTQPASVSGSPGQSITISCTGTSSDVGGYNSVSWYQQHPGKAPKLMIYAVSNRPSGVSNRFSGSKSGNTASLTISGLQAEDEADYYCASYDERFTRVFGGGTKLTVLG"
  value-type: "ELISA fluorescence units"
  value-observed: "> 35000 units"
